Provenance of the data: ChEMBL document CHEMBL1133468

Biological target: UniProt P41145
Sequence (P41145 whole entry): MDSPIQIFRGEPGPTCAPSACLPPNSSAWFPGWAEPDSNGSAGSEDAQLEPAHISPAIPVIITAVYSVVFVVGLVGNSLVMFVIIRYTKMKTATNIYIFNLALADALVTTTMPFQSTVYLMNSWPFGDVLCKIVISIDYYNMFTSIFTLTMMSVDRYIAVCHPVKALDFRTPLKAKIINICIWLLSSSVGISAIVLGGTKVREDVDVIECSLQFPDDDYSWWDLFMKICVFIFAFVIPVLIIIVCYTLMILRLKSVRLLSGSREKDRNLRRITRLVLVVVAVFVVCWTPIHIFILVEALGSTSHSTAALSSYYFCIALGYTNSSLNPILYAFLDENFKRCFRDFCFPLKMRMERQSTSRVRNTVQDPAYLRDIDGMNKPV
pIC50: −log10 of the molar value.

- COMPOUND: "CCN(CC)C(=O)c1ccc(C(c2cccc(OC)c2)N2CC(C)(C)NCC2C)cc1 (stereo unspecified)"
  pIC50: "< 5.00"
- COMPOUND: "CCN(CC)C(=O)c1ccc(C(c2ccc3ccccc3c2)N2CCNCC2)cc1 (stereo unspecified)"
  pIC50: "< 5.00"
- COMPOUND: "CCN(CC)C(=O)c1ccc(C(c2cccc3c2OC(C)(C)C3)N2CCNCC2)cc1 (stereo unspecified)"
  pIC50: "< 5.12"
- COMPOUND: "CCN(CC)C(=O)c1ccc(C(c2ccc(C)cc2)N2CCNCC2)cc1 (stereo unspecified)"
  pIC50: "< 5.00"
- COMPOUND: "CCCCN1CCN(C(c2ccccc2)c2ccc(C(=O)N(CC)CC)cc2)CC1 (stereo unspecified)"
  pIC50: "< 5.00"
- COMPOUND: "CCN(CC)C(=O)c1ccc(C(c2ccccc2)N(C)CCNC)cc1 (stereo unspecified)"
  pIC50: "< 5.00"
